MEASUREMENT_PROTOCOL: physchem
Type: physicochemical
TEST_CONTEXT: 22 °C, pH 6.6, aqueous buffer, kinetic from dmso stock
READOUT_TYPE: solubility at 2 h

> print(dat)
                           substance.smiles       result
1  COc1cc(/C=C/C(=O)CC(=O)/C=C/c2ccc(O)c(OC)c2)ccc1O  < 0.3 µg/mL
